assay.remarks: Half life in C57BL/6J mouse at 5 mg/kg, ip measured for 24 hrs by LC-MS/MS analysis
Type: ADME, organism-based
condition.parameters: in vivo
readout.type: half-life

Specify reported half-life for the molecule shown: O=C(Nc1c2c(cc3c1CCC3)CCC2)NS(=O)(=O)c1ccc(OCCOCCOCCOCCN2C(=O)/C(=C/c3cc(Br)c(O)c(Br)c3)c3cc(I)ccc32)cc1
1.26 h

====

assay.remarks: Volume of distribution at steady state in C57BL/6J mouse at 5 mg/kg, iv measured for 24 hrs by LC-MS/MS analysis
Type: ADME, organism-based
condition.parameters: in vivo, read-out: Vdss
readout.type: Vd

Specify reported Vd for the compound shown: O=C(Nc1c2c(cc3c1CCC3)CCC2)NS(=O)(=O)c1ccc(OCCOCCOCCOCCN2C(=O)/C(=C/c3cc(Br)c(O)c(Br)c3)c3cc(I)ccc32)cc1
0.39 L/kg

====

Some molecules, each annotated with its measured inhibition.
tested.target: Interleukin-1 beta (Homo sapiens) (UniProt P01584)
Sequence (P01584 117-269 limits assumed): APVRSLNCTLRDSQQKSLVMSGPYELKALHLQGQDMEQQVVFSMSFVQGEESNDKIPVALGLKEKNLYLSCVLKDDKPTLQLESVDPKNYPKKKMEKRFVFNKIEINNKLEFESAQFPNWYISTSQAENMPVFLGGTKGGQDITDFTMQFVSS
assay.remarks: Inhibition of IL-1beta in PMA-differentiated human THP-1 cells at 200 nM co-incubated with compound and LPS for 24 hrs by ELISA relative to control
Assay type: cell-based
Report field: quantity (unit follows the number).

Examples from the recorded data:
{"mol.smiles": "O=C(Nc1c2c(cc3c1CCC3)CCC2)NS(=O)(=O)c1ccc(OCCOCCN2C(=O)/C(=C/c3cc(Br)c(O)c(Br)c3)c3cc(Br)ccc32)cc1", "measured.value": "67.3%"}
{"mol.smiles": "COc1ccc(Cl)cc1C(=O)NCCc1ccc(S(=O)(=O)NCCCCCCCCCCN2C(=O)/C(=C/c3cc(Br)c(O)c(OC)c3)c3cc(Br)ccc32)cc1", "measured.value": "28%"}
{"mol.smiles": "O=C(Nc1c2c(cc3c1CCC3)CCC2)NS(=O)(=O)c1ccc(OCCCCCCCCN2C(=O)/C(=C/c3cc(Br)c(O)c(Br)c3)c3cc(Br)ccc32)cc1", "measured.value": "39.6%"}
{"mol.smiles": "COc1cc(/C=C2/C(=O)N(CCOCCOCCOc3ccc(S(=O)(=O)NC(=O)Nc4c5c(cc6c4CCC6)CCC5)cc3)c3ccc(Br)cc32)cc(Br)c1O", "measured.value": "39.1%"}
{"mol.smiles": "O=C(Nc1c2c(cc3c1CCC3)CCC2)NS(=O)(=O)c1ccc(OCCOCCOCCN2C(=O)/C(=C/c3cc(Br)c(O)c(Br)c3)c3cc(I)ccc32)cc1", "measured.value": "41.7%"}

Specify reported inhibition for the molecule shown: COc1ccc(Cl)cc1C(=O)NCCc1ccc(S(=O)(=O)NCCOCCOCCOCCN2C(=O)/C(=C/c3cc(Br)c(O)c(OC)c3)c3cc(Br)ccc32)cc1
-4.9%

Specify reported inhibition for the molecule shown: COc1ccc(Cl)cc1C(=O)NCCc1ccc(S(=O)(=O)NCCCCCCCCN2C(=O)/C(=C/c3cc(Br)c(O)c(OC)c3)c3cc(Br)ccc32)cc1
37.9%

Specify reported inhibition for the molecule shown: COc1ccc(Cl)cc1C(=O)NCCc1ccc(S(=O)(=O)NCCOCCN2C(=O)/C(=C/c3cc(Br)c(O)c(OC)c3)c3cc(Br)ccc32)cc1
23.1%

Specify reported inhibition for the molecule shown: COc1cc(/C=C2/C(=O)N(CCOCCOc3ccc(S(=O)(=O)NC(=O)Nc4c5c(cc6c4CCC6)CCC5)cc3)c3ccc(Br)cc32)cc(Br)c1O
59.2%

Specify reported inhibition for the molecule shown: COc1ccc(Cl)cc1C(=O)NCCc1ccc(S(=O)(=O)NCCOCCOCCN2C(=O)/C(=C/c3cc(Br)c(O)c(OC)c3)c3cc(Br)ccc32)cc1
43.1%

Specify reported inhibition for the molecule shown: O=C(Nc1c2c(cc3c1CCC3)CCC2)NS(=O)(=O)c1ccc(OCCCCCCCCN2C(=O)/C(=C/c3cc(Br)c(O)c(Br)c3)c3cc(I)ccc32)cc1
26.5%

Specify reported inhibition for the molecule shown: O=C(Nc1c2c(cc3c1CCC3)CCC2)NS(=O)(=O)c1ccc(OCCOCCOCCOCCN2C(=O)/C(=C/c3cc(Br)c(O)c(Br)c3)c3cc(I)ccc32)cc1
73.6%

Specify reported inhibition for the molecule shown: COc1ccc(Cl)cc1C(=O)NCCc1ccc(S(=O)(=O)NCCCCCN2C(=O)/C(=C/c3cc(Br)c(O)c(OC)c3)c3cc(Br)ccc32)cc1
36.2%

Specify reported inhibition for the molecule shown: O=C(Nc1c2c(cc3c1CCC3)CCC2)NS(=O)(=O)c1ccc(OCCOCCN2C(=O)/C(=C/c3cc(Br)c(O)c(Br)c3)c3cc(I)ccc32)cc1
98.2%

Specify reported inhibition for the molecule shown: O=C(Nc1c2c(cc3c1CCC3)CCC2)NS(=O)(=O)c1ccc(OCCOCCOCCN2C(=O)/C(=C/c3cc(Br)c(O)c(Br)c3)c3cc(Br)ccc32)cc1
45.2%
